Let's look at some IC50 data for Aurora kinase A (Homo sapiens) that I collected from the literature.

Field: example entries. Status: answers known.
IN: Which IC50 is reported with Aurora kinase A (Homo sapiens) for this entry: Cc1cn2c(-c3cn[nH]c3)cnc2c(Nc2cc(Cc3cccc(C(=O)N4CCCCC4)n3)ns2)n1 ?
OUT: < 0.004 µM

IN: Which IC50 is reported with Aurora kinase A (Homo sapiens) for this entry: CN1CCN(c2ccc3c(Nc4cc[nH]n4)nc(-c4ccccc4)nc3c2)CC1 ?
OUT: 5.95 µM

IN: Which IC50 is reported with Aurora kinase A (Homo sapiens) for this entry: NC(=O)c1nn(Cc2ccccc2)c2c1CCc1cnc(NC3CCCC3)nc1-2 ?
OUT: > 10 µM

IN: Which IC50 is reported with Aurora kinase A (Homo sapiens) for this entry: c1ccc2sc(-c3ccc(Nc4ncnc5nc[nH]c45)cc3)nc2c1 ?
OUT: > 10 µM

IN: Which IC50 is reported with Aurora kinase A (Homo sapiens) for this entry: Cc1cn2c(-c3cn[nH]c3)cnc2c(Nc2cc(C(c3ccccn3)N3CCOCC3)ns2)n1 (racemic) ?
OUT: ≤ 0.004 µM

Next:
IN: Which IC50 is reported with Aurora kinase A (Homo sapiens) for this entry: CNC(=O)c1nn(C)c2c1CCc1cnc(NC3CCN(C(=O)N4CCN(C)CC4)CC3)nc1-2 ?
OUT: > 10 µM

IN: Which IC50 is reported with Aurora kinase A (Homo sapiens) for this entry: O=C(NCc1ccc(-c2cc(NC(=O)c3ccc(OCCN4CCOCC4)cc3)[nH]n2)cc1)OCc1cccnc1 ?
OUT: > 1 µM

IN: Which IC50 is reported with Aurora kinase A (Homo sapiens) for this entry: Cc1cn2c(-c3cn[nH]c3)cnc2c(Nc2cc(C(C)N3CCOC(C)(C)C3)ns2)n1 (racemic) ?
OUT: ≤ 0.004 µM

----------
Target: Aurora kinase A (Homo sapiens, UniProt O14965)
Sequence (O14965 whole entry): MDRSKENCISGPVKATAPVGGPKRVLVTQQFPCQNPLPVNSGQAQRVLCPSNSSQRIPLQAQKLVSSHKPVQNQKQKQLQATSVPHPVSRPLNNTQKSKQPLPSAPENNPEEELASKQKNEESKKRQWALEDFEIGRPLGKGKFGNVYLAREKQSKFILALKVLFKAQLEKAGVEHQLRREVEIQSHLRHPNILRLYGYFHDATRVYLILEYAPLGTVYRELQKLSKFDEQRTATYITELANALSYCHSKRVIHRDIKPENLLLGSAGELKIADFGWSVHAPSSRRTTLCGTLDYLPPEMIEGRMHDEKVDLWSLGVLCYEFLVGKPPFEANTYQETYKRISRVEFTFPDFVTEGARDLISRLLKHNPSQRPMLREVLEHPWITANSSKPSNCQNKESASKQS
pIC50: −log10 of the molar value.
Let's look at some pIC50 data for Aurora kinase A (Homo sapiens, UniProt O14965) that I collected from the literature.

Field: example entries. Status: answers known.
IN: # input compound: COc1cc(Nc2ncnc3ccsc23)ccc1-c1nc2ccccc2s1 ; wanted: its pIC50
OUT: < 5.00

IN: # input compound: COc1cc2c(Nc3cnc(NC(=O)c4cccc(Cl)c4)nc3)ncnc2cc1OCCCN1CCOCC1 ; wanted: its pIC50
OUT: > 10.00

IN: # input compound: Cc1nsc(Nc2nccn3c(-c4cnn(C)c4)cnc23)n1 ; wanted: its pIC50
OUT: < 5.00

IN: # input compound: CS(=O)(=O)N(Cc1ccncc1)c1ccc(Nc2ncc3cnn(C4CCCCCC4)c3n2)cn1 ; wanted: its pIC50
OUT: 7.02

// moving on: another record for pIC50
IN: # input compound: COCCNC(=O)c1c(N)ncnc1Nc1ccc(OCc2ccccc2)c(Cl)c1 ; wanted: its pIC50
OUT: < 4.00
